These measurements were taken from PubChem BioAssay.

Reported z-score values follow for various compounds
- Study Target: Luciferin 4-monooxygenase (Photinus pyralis) (UniProt P08659)
- Sequence (P08659 whole entry, looked up): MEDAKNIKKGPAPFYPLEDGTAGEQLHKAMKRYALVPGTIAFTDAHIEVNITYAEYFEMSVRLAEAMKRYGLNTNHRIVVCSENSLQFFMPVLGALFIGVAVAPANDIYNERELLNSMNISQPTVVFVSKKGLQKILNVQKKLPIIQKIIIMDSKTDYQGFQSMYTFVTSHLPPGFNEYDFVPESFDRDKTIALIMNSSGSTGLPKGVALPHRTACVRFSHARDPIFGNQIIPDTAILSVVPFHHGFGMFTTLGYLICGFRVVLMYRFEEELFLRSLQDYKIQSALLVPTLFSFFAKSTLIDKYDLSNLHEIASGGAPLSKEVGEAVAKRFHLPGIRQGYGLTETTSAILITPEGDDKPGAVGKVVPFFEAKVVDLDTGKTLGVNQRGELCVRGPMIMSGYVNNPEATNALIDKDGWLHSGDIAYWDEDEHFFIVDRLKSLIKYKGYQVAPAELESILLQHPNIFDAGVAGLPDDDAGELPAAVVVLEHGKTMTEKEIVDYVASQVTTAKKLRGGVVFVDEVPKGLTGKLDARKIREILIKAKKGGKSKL
- Test Method Notes: firefly luciferase enzyme inhibitors, primary screen, biochemical, luminescence, purified enzyme, 2006 set (AID 1141);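 further: cell-free assay with purified firefly luciferase at 100 ng per well in PBS; test concentration not given here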
- Condition: SteadyGlo luminescence, 30 min, higher = more signal, called active from +8 up or from −8 down
Please give only the number in your answer, with no unit.

Before answering, review these 6 worked examples.
**Query** Requested read-out z-score, target or system Luciferin 4-monooxygenase (Photinus pyralis) (UniProt P08659), entry CN(C)CCCCCCNC(=O)[C@@H]1C[C@@H]2C(=O)N[C@@H](CCCCN)C(=O)N2[C@@H]1c1ccc(O)cc1
**Result** 0.307

**Query** Further, for CN1C(=O)C2C=CC(C(O)c3cc(C(F)(F)F)cc(C(F)(F)F)c3)N(Nc3ccccc3)C2C1=O (stereo not given) ?
**Result** 0.787

**Query** Then what about the compound COc1ccc([Si](C)(C)[C@H]2[C@H](CC(=O)N3CCC[C@H]3CO)O[C@@]3(C(=O)N(Cc4ccc(N5CCC5=O)cc4)c4ccccc43)[C@@H]2C)cc1 ?
**Result** -0.509

**Query** Do the same for CCOC(=O)C[C@H]1[C@H](OC(=O)c2cc3ccccc3oc2=O)[C@@H](NC(=O)c2ccc3ccccc3c2)c2cc(OCCCO)ccc2N1C(=O)Cc1ccc(OC)cc1 please
**Result** 0.842

**Query** Can you handle Cc1nc2cc(Br)ccc2c(=O)n1Cc1cccc(O)c1 next?
**Result** 6.4

**Query** Would you kindly repeat that for COC(=O)C1=CC(CCCO)=CC(c2ccc(CN3CCCC3)cc2)N(Cc2cc3c(cc2Br)OCO3)C=C1C(=O)OC (stereo not given) ?
**Result** 0.197

New cases:
**Query** Please state recorded z-score (tested on Luciferin 4-monooxygenase (Photinus pyralis) (UniProt P08659)) of COC(=O)[C@@]1(Cc2ccccc2)[C@H]2c3cc(C(=O)N4CCCC4)n(CCSCCO)c3C[C@H]2CN1C(=O)c1ccccc1
**Result** 0.103

**Query** And CCCC=C(CCC)[C@@H](NC(=O)CCc1ccccc1)c1ccc(C(F)(F)F)cc1 ?
**Result** 1.31

**Query** Lookup CN1C=C(C(=O)OCCS(C)(=O)=O)C(C(=O)OCCS(C)(=O)=O)=CC(c2ccc(CO)cc2)=CC1c1cccs1 (stereo not given)
**Result** -1.63

**Query** And the next one, CC(C)N1CC=CC23O[C@@H]4/C=C\CCCOC(=O)C4[C@H]2C(=O)N(CCCCCCO)[C@@H]3C1=O (stereo not given in full) ?
**Result** -1.88

* * *

- Test Method Notes: small-molecule binders of probe aInhba, primary screen, biochemical, small-molecule microarray, 635/667 nm fluorescence (AID 1148);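 further: score merges 667nm spot fluorescence with signal-to-noise for antibody binding to printed compounds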
- Condition: higher = more signal
Metric: composite z-score
Respond using a number only.

# example entries with known answers
**Query** Which value of composite z-score has been reported for O=C1C2C=CC(C(O)c3ccco3)N(Nc3ccccc3)C2C(=O)N1c1ccccc1 (stereo not given) in the records?
**Result** -0.0963

**Query** Same thing, different molecule: CC(C)C[C@@H]1NC(=O)[C@H]2C[C@@H](C(=O)NCCCCCN)[C@@H](c3cccc(OCCO)c3)N2C1=O
**Result** -0.008

**Query** # repeat for CC(C)C[C@@H]1NC(=O)[C@@H]2C[C@H](C(=O)NCCCCCC[N+](C)(C)C)[C@H](c3cccc(OCCO)c3)N2C1=O
**Result** -0.128

**Query** Would you kindly repeat that for [N-]=[N+]=NCc1ccccc1[C@H]1OC(c2ccc(OCCCO)cc2)=N[C@@]1(Cc1ccccc1)C(=O)NCCN1CCOCC1 ?
**Result** 0.555

Now for another entry.
**Query** So what does the record say about composite z-score for COc1ccc([Si](C)(C)[C@@H]2[C@@H](CC(=O)N3Cc4ccccc4C[C@H]3CO)O[C@]3(C(=O)N(c4ccccc4)c4ccccc43)[C@H]2C)cc1 ?
**Result** 0.128

* * *

- Test system: Inhibin beta A chain (activin A)
- Test Method Notes: INHBA (activin A) binders on microarrays, primary screen, biochemical, small-molecule microarray, 635 nm fluorescence scan (AID 1107);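 further: mouse activin A protein probed at 4.33 µg/mL on printed slides; score merges bound-protein fluorescence near 667 nm with spot signal-to-noise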
- Condition: small-molecule microarray binding, higher = more signal
Each entry gets rule not met if its composite z-score stays under 1, and rule met if its composite z-score is 1 or above.

**Query** Determine whether measured composite z-score meets or exceeds 1 for COc1cc2c(cc1O)C(c1cccs1)N(Cc1sc3ccccc3c1Cl)CC2 (stereo unspecified)
**Result** rule not met

**Query** Please answer likewise for O=C1C2C=CC(C(O)c3cccc(O)c3)N(Nc3ccccc3)C2C(=O)N1c1ccccc1 (stereo unspecified)
**Result** rule not met

**Query** Check COC(=O)C1=CC(CCCO)=CC(c2ccc(CN3CCCC3)cc2)N(Cc2cc3c(cc2Br)OCO3)C=C1C(=O)OC (stereo unspecified) too.
**Result** rule met

**Query** Same thing, different compound: CN(C)CCCCNC(=O)[C@H]1C[C@H]2C(=O)N[C@@H](CCCC[N+](C)(C)C)C(=O)N2[C@H]1c1ccc(O)cc1
**Result** rule not met

**Query** // next record COc1ccc(CCNC(=O)[C@@]2(Cc3ccccc3I)c3ccccc3C(=O)N(Cc3ccccc3Cl)[C@H]2c2ccc(CO)cc2)cc1
**Result** rule not met

**Query** Consider next the compound COCC(=C=CC[C@H](O)c1cccc(OCCO)c1)C[C@H](O)COCc1ccccc1 in the same way.
**Result** rule met

* * *

- Study Target: Alpha-bungarotoxin (Bungarus multicinctus)
- Test Method Notes: alpha-bungarotoxin binders on microarray, profiling panel, artefact control for SMM control protein annotation, biochemical, small-molecule microarray, Alexa647 label, 635/667 nm fluorescence (AID 1117)
- Condition: alpha-BTX-A647 binding fluorescence, higher = more signal
Metric: composite z-score

**Query** Which composite z-score is reported for this compound? CN1C=C(C(=O)OCCS(C)(=O)=O)C(C(=O)OCCS(C)(=O)=O)=CC(c2ccc(CO)cc2)=CC1c1cccs1 (centres undefined)
**Result** 0.821

**Query** Follow-up item: C=CCC(OC(C)=O)[C@@H]1[C@@H](N(Cc2cccc3ccccc23)C(=O)c2ccc(-c3ccccc3)cc2)c2cc(OCCCO)ccc2N1C(=O)c1ccc(-c2ccccc2)cc1 (some centres undefined)
**Result** 0.439

**Query** Now consider CCOC(=O)C1=CCC(c2ccco2)N(S(=O)(=O)c2ccc(C)cc2)C1 (centres undefined) and answer again.
**Result** 0.818

**Query** Then this compound: CN(C)CCCCCCNC(=O)[C@@H]1C[C@@H]2C(=O)N[C@@H](CCCCN)C(=O)N2[C@@H]1c1ccc(O)cc1
**Result** 3.03

**Query** COC(=O)[C@@]1(Cc2ccccc2CN=[N+]=[N-])N=C(c2ccc(OCCCO)cc2)O[C@H]1c1ccccc1 , same question.
**Result** 0.779

Continuing:
**Query** Could you share which composite z-score value was measured for C=CCN1C(=O)[C@]2(O[C@H](CCO)[C@@H]([Si](C)(C)c3ccc(OC)cc3)[C@@H]2C)c2cc(NC(=O)c3ccc(OC)cc3)ccc21 ?
**Result** 0.732

**Query** Consider next the compound C=C[C@@H](OC)[C@H](OC(=O)Nc1ccc(SC)cc1)c1ccc(OCCO)cc1 in the same way.
**Result** 1.36

**Query** Repeat with Cc1nc2cc(Br)ccc2c(=O)n1Cc1cccc(O)c1
**Result** -0.0871

**Query** Same read-out for C=CCNC(=O)[C@@H]1[C@H]2C(=O)O[C@H](c3ccccc3)[C@H](c3ccccc3)N2[C@H](c2ccc(OCCO)cc2)[C@@]12C(=O)N(C(=O)OCCOC)c1ccc(C#CCCO)cc12 ?
**Result** 1.35

* * *

- System: wheat germ agglutinin (Triticum aestivum), Alexa647-labelled
- Test Method Notes: wheat germ agglutinin binders on compound microarrays, profiling panel, artefact control for SMM control-protein annotation, biochemical, small-molecule microarray, 635/667 nm fluorescence (AID 1140);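 further: score merges 667 nm feature emission with signal to noise over triplicate slides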
- Condition: WGA-A647 binding, 635 nm fluorescence, higher = more signal
Metric: composite z-score
Could you keep your reply to the number by itself?

Examples with answers:
**Query** State the recorded composite z-score for this entry: CC(C)C(=C=CC[C@@H](O)c1cccc(OCCO)c1)C[C@@H](O)c1ccccn1
**Result** 0.782

**Query** Also COC(=O)[C@@]1(Cc2ccc(OC)cc2)[C@H]2c3cc(C(=O)N4CCCC4)n(Cc4ccc(OC(F)(F)F)cc4)c3C[C@H]2CN1C(=O)c1ccccc1 , if possible.
**Result** 1.09

Moving on to the next compound.
**Query** For the compound shown here, Cc1nc2cc(Br)ccc2c(=O)n1Cc1cccc(O)c1 , give the reported composite z-score.
**Result** 0.334

* * *

- Test Method Notes: small-molecule binders of probe aLefty1, primary screen, biochemical, small-molecule microarray, 635/667 nm fluorescence (AID 1153);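 further: score merges spot fluorescence with signal-to-noise ratio from the scanned slide images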
- Condition: higher = more signal
// map composite z-score onto a label; ranges class 1: < -0.1; class 2: ≥ -0.1 and < 0.04; class 3: ≥ 0.04

Here's what some known entries look like.
**Query** Could you place CCOC(=O)C[C@H]1[C@H](OC(=O)c2ccccc2-c2ccccc2)[C@@H](NC(=O)c2ccccc2)c2cc(OCCCO)ccc2N1C(=O)c1ccccc1 in its proper category? Many thanks.
**Result** class 2

**Query** Next entry: C=C[C@@H](OC)[C@H](OC(=O)Nc1ccc(SC)cc1)c1ccc(OCCO)cc1
**Result** class 3

Continuing:
**Query** # bin label for COc1ccc([Si](C)(C)[C@H]2[C@H](CCO)O[C@@]3(C(=O)N(Cc4ccc(N5C(=O)c6ccccc6Oc6ccccc65)cc4)c4ccccc43)[C@@H]2C)cc1
**Result** class 2

**Query** Would you mind doing C=C(COC)/C(=C/C[C@@H](OC(=O)c1ccncc1)c1ccccc1OCCO)c1cc(C(=O)OC)ccc1OC as well?
**Result** class 2

**Query** Thanks! And COCCOC(=O)N1C(=O)[C@@]2(c3cc(C#CCNC(N)=O)ccc31)[C@H](c1ccc(O)cc1)N1[C@H](c3ccccc3)[C@H](c3ccccc3)OC(=O)[C@H]1[C@@H]2C(=O)N1CCN(c2ncccn2)CC1 ?
**Result** class 1
